Numbers sourced from the supplement of paper PMC10567573.

Measured protein stability index, listed per entry for reference.
B1: DYRK1B (parent)
chain: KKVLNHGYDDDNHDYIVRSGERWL

Variants of: B1
Assay: protein stability index of a GFP-peptide fusion (GPS, HEK-293T) (PSI 1-6); higher = more stable;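 also: lentivirally expressed fusions sorted by FACS into six bins by GFP to DsRed ratio, PSI derived from sequencing read proportions per bin multiplied by bin number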
Conditions: c terminus: a fixed tail appended
observed property: protein stability index

residues	observed property	val
WKVLNHGYDDDNHDYIVRSGERWL [K1W]	protein stability index	2.07
KDVLNHGYDDDNHDYIVRSGERWL [K2D]	protein stability index	4.31
KKVLNHGYDDDNHDYIVRSMERWL [G20M]	protein stability index	2.13
KKVLNHGLDDDNHDYIVRSGERWL [Y8L]	protein stability index	3.36
KKVLNHGYDDDNHDYIVRNGERWL [S19N]	protein stability index	3.22
KSVLNHGYDDDNHDYIVRSGERWL [K2S]	protein stability index	2.97
KKVLNHCYDDDNHDYIVRSGERWL [G7C]	protein stability index	2.27
KKVLNHGYDDDNHDYDVRSGERWL [I16D]	protein stability index	3.84
KKVLNHGYDDDNHDYIVRSHERWL [G20H]	protein stability index	2.67
KKVLNHGYDDDNHDCIVRSGERWL [Y15C]	protein stability index	3.58
KKVLNHGYDDDNHDYRVRSGERWL [I16R]	protein stability index	3.49
KKVLDHGYDDDNHDYIVRSGERWL [N5D]	protein stability index	3.41
KKVLNHGYDDDNHDYIVRSGERNL [W23N]	protein stability index	4.56
KKVLNHGYDDDNFDYIVRSGERWL [H13F]	protein stability index	1.95
KKVLNHGYDDDNHDYIWRSGERWL [V17W]	protein stability index	2.56
KKVLNHGYDDDNHDYIVRSGERWD [L24D]	protein stability index	4.08
KKVLNHGYDRDNHDYIVRSGERWL [D10R]	protein stability index	2.82
KKVLNHGYDDDNHDYIGRSGERWL [V17G]	protein stability index	3.36
KKVLNHGYDDDNHDYIVRSGFRWL [E21F]	protein stability index	2.16
KKVLNHGYADDNHDYIVRSGERWL [D9A]	protein stability index	2.89
KKVLNHGYDDDNHDPIVRSGERWL [Y15P]	protein stability index	3.6
NKVLNHGYDDDNHDYIVRSGERWL [K1N]	protein stability index	2.95
KKVLNHGYDDDWHDYIVRSGERWL [N12W]	protein stability index	2.01
KKVLNHGYDDDNADYIVRSGERWL [H13A]	protein stability index	3.06
KKVLNHGYDCDNHDYIVRSGERWL [D10C]	protein stability index	2.52
KKVLNHGYDDDNQDYIVRSGERWL [H13Q]	protein stability index	3.68
KKVLNHGYDVDNHDYIVRSGERWL [D10V]	protein stability index	2.44
KKVLNHGYDDDNHDRIVRSGERWL [Y15R]	protein stability index	3.72
KKVLNHGYDDDNHDYIVRSGARWL [E21A]	protein stability index	2.97
KEVLNHGYDDDNHDYIVRSGERWL [K2E]	protein stability index	3.7
KKVLNHGYDDRNHDYIVRSGERWL [D11R]	protein stability index	2.37
KKVLNHGYDDDNHDYIVRSRERWL [G20R]	protein stability index	3.54
KKVLNHGYDDDNHDMIVRSGERWL [Y15M]	protein stability index	3.27
KKVLNHGYDDFNHDYIVRSGERWL [D11F]	protein stability index	2.15
KKVLSHGYDDDNHDYIVRSGERWL [N5S]	protein stability index	2.67
KKALNHGYDDDNHDYIVRSGERWL [V3A]	protein stability index	3.45
KKVLNHGYDDDNHDYIVRSGIRWL [E21I]	protein stability index	2.16
KKVLNHGYTDDNHDYIVRSGERWL [D9T]	protein stability index	2.75
KKVLNHGYDDDNHLYIVRSGERWL [D14L]	protein stability index	1.67
KKVLNHGYDDDNHDYIVRSWERWL [G20W]	protein stability index	2.31
KKVLNHGYDDDNHDYIKRSGERWL [V17K]	protein stability index	3.4
KKVLNHGYWDDNHDYIVRSGERWL [D9W]	protein stability index	1.53
KKVLNHGYDDDNHHYIVRSGERWL [D14H]	protein stability index	3.03
KKVLNHGYDYDNHDYIVRSGERWL [D10Y]	protein stability index	3.06
KKVLNHGPDDDNHDYIVRSGERWL [Y8P]	protein stability index	3.24
KKVLNHGYDDDNHDYIVRSGERWM [L24M]	protein stability index	3.49
KFVLNHGYDDDNHDYIVRSGERWL [K2F]	protein stability index	2.52
KKVLNHGYDADNHDYIVRSGERWL [D10A]	protein stability index	3.02
KKVLNHGYDDDNHDYIVRSGERWF [L24F]	protein stability index	2.81
KKVLNEGYDDDNHDYIVRSGERWL [H6E]	protein stability index	3.44
